biological target: Heat shock protein HSP 90-alpha (Homo sapiens, UniProt P07900); assay: Binding affinity to human recombinant Hsp90alpha N-terminal domain by scintillation proximity assay

[
  {
    "Smiles Notation": "CO[C@H]1C[C@H](C)Cc2cc(cc(Cl)c2O)NC(=O)/C(C)=C/CC[C@H](OC)[C@@H](OC(N)=O)/C(C)=C/[C@H](C)[C@H]1O",
    "Unit String": "nM",
    "Kd": 50
  }
]

###

test system: MCF7; assay: Cytotoxicity against human MCF7 cells after 72 hrs in presence of NQO1 inhibitor dicoumarol; format: functional, cell-based; conditions: MCF7, 72 h
Metric Name: IC50

[
  {
    "Smiles Notation": "CO[C@H]1/C=C\\C=C(/C)C(=O)NC2=CC(=O)C(NCCN(C)C)=C(C[C@@H](C)C[C@H](OC)[C@H](O)[C@@H](C)/C=C(\\C)[C@@H]1OC(N)=O)C2=O",
    "Measured Target": "MCF7",
    "Metric Name": "IC50",
    "Test Result": "862 nM"
  },
  {
    "Smiles Notation": "C=CCNC1=C2C[C@@H](C)C[C@H](OC)[C@H](O)[C@@H](C)/C=C(\\C)[C@H](OC(N)=O)[C@@H](OC)/C=C\\C=C(/C)C(=O)NC(=CC1=O)C2=O",
    "Measured Target": "MCF7",
    "Metric Name": "IC50",
    "Test Result": "662 nM"
  }
]

###

test system: NCI-H596; test: Cytotoxicity against NQ01-deficient human NCI-H596 cells after 72 hrs; type: functional, cell-based; conditions: NCI-H596, 72 h
In this section we review reported IC50 values for a set of compounds.

[
  {
    "Smiles Notation": "CO[C@H]1/C=C\\C=C(/C)C(=O)NC2=CC(=O)C(NCCN(C)C)=C(C[C@@H](C)C[C@H](OC)[C@H](O)[C@@H](C)/C=C(\\C)[C@@H]1OC(N)=O)C2=O",
    "IC50 [nM]": 1100
  },
  {
    "Smiles Notation": "CO[C@H]1/C=C\\C=C(/C)C(=O)Nc2cc(Cl)c(O)c(c2O)C[C@@H](C)C[C@H](OC)[C@H](O)[C@@H](C)/C=C(\\C)[C@@H]1OC(N)=O",
    "IC50 [nM]": 710
  },
  {
    "Smiles Notation": "C=CCNC1=C2C[C@@H](C)C[C@H](OC)[C@H](O)[C@@H](C)/C=C(\\C)[C@H](OC(N)=O)[C@@H](OC)/C=C\\C=C(/C)C(=O)NC(=CC1=O)C2=O",
    "IC50 [nM]": 1600
  },
  {
    "Smiles Notation": "CO[C@H]1C[C@H](C)Cc2cc(ccc2O)NC(=O)/C(C)=C/CC[C@H](OC)[C@@H](OC(N)=O)/C(C)=C/[C@H](C)[C@H]1O",
    "IC50 [nM]": 1200
  },
  {
    "Smiles Notation": "CO[C@H]1/C=C\\C=C(/C)C(=O)Nc2ccc(O)c(c2)C[C@@H](C)C[C@H](OC)[C@H](O)[C@@H](C)/C=C(\\C)[C@@H]1OC(N)=O",
    "IC50 [nM]": 325
  },
  {
    "Smiles Notation": "CO[C@H]1C[C@H](C)Cc2cccc(c2)NC(=O)/C(C)=C/CC[C@H](OC)[C@@H](OC(N)=O)/C(C)=C/[C@H](C)[C@H]1O",
    "IC50 [nM]": 390
  }
]
